- Tested on: E. coli 901C
- protocol: Broth microdilution MIC in CAMHB
- Format: cell-based
- runConditions: Escherichia coli; E. coli 901C (hyper-permeable); MHB; read-out: Minimum Inhibitory Concentration, E. coli 901C
endpoint: MIC

O=C(NCCCN1CCN(C(=O)NC(C(=O)N[C@H]2Cc3cccc(C(=O)O)c3OB2O)c2ncc(O)cc2F)C(=O)C1=O)c1ccc(O)c(O)c1Cl (stereo partly drawn) [Example 1] ... 8 to 16 µg/mL

Query: MIC; subject: CCN1CCN(C(=O)NC(C(=O)N[C@H]2Cc3cccc(C(=O)O)c3OB2O)c2ccc(O)c(NC(=O)c3ccc(O)c(O)c3Cl)c2)C(=O)C1=O (stereo partly drawn) [Example 74]
Reply: < 0.25 µg/mL

Query: MIC; subject: CCN1CCN(C(=O)NC(C(=O)N[C@H]2Cc3cccc(C(=O)O)c3OB2O)c2c(F)c(O)cc(O)c2F)C(=O)C1=O (stereo partly drawn) [Example 106]
Reply: 2 to 4 µg/mL

###

Listed here are compounds together with their documented MIC.
- Tested on: E. coli AG100
- protocol: Broth microdilution MIC in CAMHB
- Assay type: cell-based
- runConditions: Escherichia coli; E. coli AG100 (wild-type parent); MHB; read-out: Minimum Inhibitory Concentration, E. coli AG100

// worked examples, MIC included
CCN1CCN(C(=O)N[C@H](C(=O)N[C@H]2Cc3cccc(C(=O)O)c3OB2O)c2nc(Cl)c(C(=O)O)cc2F)C(=O)C1=O [Example 19] ... > 128 µg/mL
CCN1CCN(C(=O)N[C@H](C(=O)N[C@H]2Cc3cccc(C(=O)O)c3OB2O)c2ccc(C(=O)O)cc2O)C(=O)C1=O (single isomer, unassigned) [Example 143] ... > 128 µg/mL
CCN1CCN(C(=O)NC(C(=O)N[C@H]2Cc3cccc(C(=O)O)c3OB2O)c2cc(Cl)c(O)c(Cl)c2)C(=O)C1=O (stereo partly drawn) [Example 171] ... 32 to 64 µg/mL

Query: MIC; subject: NCCN1CCN(C(=O)NC(C(=O)N[C@H]2Cc3cccc(C(=O)O)c3OB2O)c2cc(F)c(O)c(Cl)c2)C(=O)C1=O (stereo partly drawn) [Example 163]
Reply: 32 to 64 µg/mL

Query: MIC; subject: CCN1CCN(C(=O)NC(C(=O)N[C@H]2Cc3cccc(C(=O)O)c3OB2O)c2ccc(C(=O)O)c(O)c2)C(=O)C1=O (stereo partly drawn) [Example 196]
Reply: 32 to 64 µg/mL

Query: MIC; subject: O=C(O)c1ccc(C(NC(=O)N2CCN(CCNC(=O)c3ccc(O)c(O)c3Cl)C(=O)C2=O)C(=O)N[C@H]2Cc3ccc(F)c(C(=O)O)c3OB2O)cc1F (stereo partly drawn) [Example 11]
Reply: 32 to 64 µg/mL

###

- System: N. gonorrhoeae WHO Z
- protocol: Liquid broth MIC in Fastidious broth
- Type: cell-based
- runConditions: Neisseria gonorrhoeae, read-out: Minimum Inhibitory Concentration, N. gonorrhoeae WHO Z
Listed here are compounds together with their documented MIC.

NC(=O)c1ccc(C(NC(=O)N2CCN(CCF)C(=O)C2=O)C(=O)N[C@H]2Cc3cccc(C(=O)O)c3OB2O)cc1O (some centres unmarked) ... 16 to 32 µg/mL
O=C(NC(C(=O)N[C@H]1Cc2ccc(F)c(C(=O)O)c2OB1O)c1ncc(O)cc1F)c1ccnc(F)c1 (some centres unmarked) ... > 64 µg/mL
NCCN1CCN(C(=O)N[C@@H](C(=O)N[C@H]2Cc3cccc(C(=O)O)c3OB2O)c2ccc(O)c(Cl)c2F)C(=O)C1=O (single isomer, unassigned) ... > 64 µg/mL
NC1(CN2CCN(C(=O)N[C@@H](C(=O)N[C@H]3Cc4ccc(F)c(C(=O)O)c4OB3O)c3c(F)cc(O)c(O)c3Cl)C(=O)C2=O)CC1 (single isomer, unassigned) ... > 64 µg/mL

Next item in the queue.
Query: MIC; subject: CCN1CCN(C(=O)N[C@@H](C(=O)N[C@H]2Cc3cccc(C(=O)O)c3OB2O)c2ccc(C(=O)O)cc2Cl)C(=O)C1=O (single isomer, unassigned)
Reply: 1 to 2 µg/mL
